# Experimental Details: IV and PO pharmacokinetic studies of prodrug salts (Iab, Ibb, Icb) in the dog, with historical parent data
# Type: in vivo, beagle dogs
# Condition Context: male, beagle, in vivo, iv, 1.28 mg/kg
Quantity: Vd (L/kg)
Field: numeric (L/kg). Do not append units.

Ask: Which Vd reading was recorded for the compound COc1cnc(-n2cnc(C)n2)c2c1c(C(=O)C(=O)N1CCN(C(=O)c3ccccc3)CC1)cn2COP(=O)(O)O [Icb] ?
Reply: 0.5

====

# Experimental Details: in vitro
# Condition Context: dog, serum
Reported half-life at 10 μM is given for each of the following molecules.
Respond numerically; units are h and should not be typed.

{"Molecule Smiles": "COc1cnc(OC)c2c1c(C(=O)C(=O)N1CCN(C(=O)c3ccccc3)CC1)cn2COP(=O)(O)O", "Quantity": "half-life at 10 μM", "Numeric Readout": 3.03}

Here is the next item to consider.
Ask: Give its half-life at 10 μM value. Item: `COc1cnc(-n2cnc(C)n2)c2c1c(C(=O)C(=O)N1CCN(C(=O)c3ccccc3)CC1)cn2COP(=O)(O)O`
Reply: 2.6

====

We begin with a simple list: items and their reported half-life at 10 μM.
# Subject Of Test: human placental alkaline phosphatase (ALP) (Homo sapiens, UniProt P05187)
# Construct: To study the hydrolysis of lab in a purified form of human ALP, Iab was incubated in human placental ALP solutions; host or cells: human placenta (inferred from the name and from 'ALP derived from humans')
# Sequence (P05187 23-506 limits assumed): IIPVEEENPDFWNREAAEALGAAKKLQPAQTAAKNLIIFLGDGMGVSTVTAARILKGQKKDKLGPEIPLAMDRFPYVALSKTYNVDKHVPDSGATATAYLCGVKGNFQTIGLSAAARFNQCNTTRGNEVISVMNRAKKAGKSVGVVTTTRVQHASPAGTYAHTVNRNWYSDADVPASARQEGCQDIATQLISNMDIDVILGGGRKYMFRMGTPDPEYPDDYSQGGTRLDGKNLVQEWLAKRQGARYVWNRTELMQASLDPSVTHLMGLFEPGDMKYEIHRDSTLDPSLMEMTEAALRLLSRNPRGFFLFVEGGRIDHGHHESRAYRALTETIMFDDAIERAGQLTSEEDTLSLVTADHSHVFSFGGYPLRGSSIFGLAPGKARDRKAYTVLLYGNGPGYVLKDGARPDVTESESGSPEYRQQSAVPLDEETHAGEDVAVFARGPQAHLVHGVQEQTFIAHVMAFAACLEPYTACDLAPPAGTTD
# Experimental Details: Hydrolysis of prodrug in human placental ALP solutions
# Assay type: in vitro ADME
# Condition Context: human placental ALP solution, pH 7.5, ALP Activity 10 Units/L, 37°C, 120 min, read-out: t1/2 (min) of prodrug disappearance
Enter your answer as a number in min; do not include the unit.

Record excerpt, results attached:
{"Molecule Smiles": "COc1cnc(OC)c2c1c(C(=O)C(=O)N1CCN(C(=O)c3ccccc3)CC1)cn2COP(=O)(O)O", "half-life at 10 μM / min": 186}
{"Molecule Smiles": "O=C(C(=O)N1CCN(C(=O)c2ccccc2)CC1)c1cn(COP(=O)(O)O)c2c(-n3ccnn3)ncc(F)c12", "half-life at 10 μM / min": 198}

Ask: Missing value: half-life at 10 μM, human placental alkaline phosphatase (ALP) (Homo sapiens, UniProt P05187), entry `COc1cnc(-n2cnc(C)n2)c2c1c(C(=O)C(=O)N1CCN(C(=O)c3ccccc3)CC1)cn2COP(=O)(O)O` . Fill in?
Reply: 250

====

# Experimental Details: IV and PO pharmacokinetic studies of prodrug salts (Iab, Ibb, Icb) in the monkey, with historical parent data
# Assay type: in vivo, cynomolgus monkeys
# Condition Context: male, cynomolgus monkey, plasma, po, […]; read-out: Tmax
Quantity: Tmax (h)
Return type: number; implicit unit h.

Ask: # input compound: `O=C(C(=O)N1CCN(C(=O)c2ccccc2)CC1)c1c[nH]c2c(-n3ccnn3)ncc(F)c12` ; wanted: its Tmax
Reply: 1.5

====

# Experimental Details: IV and oral rat PK (MAP) studies A, B, C of phosphate prodrugs and parent studies A1, B1, C1
# Format: in vivo, Sprague-Dawley rats
# Condition Context: male, Sprague-Dawley, rat, plasma, po, 5 mg/kg, AUC 0-24 h (μM * hr), rats, historic, after PO dosing of parent 5 mpk
# Experimental: The rats for oral dosing studies were fasted overnight. […] The dosing solutions of all three prodrugs for both IV and oral administration were prepared in 100% normal saline at 1 mg/mL (dosing solution concentrations were parent compound equivalent). Plasma samples were collected in EDTA vacutainers over 24 hrs, and analyzed by LC/MS/MS for both the prodrugs and parent molecules. Pharmacokinetic analysis was performed on Kinetica™. […]
compounds and their reported AUC(0-t)
Kindly provide the numeric value in µM·h only, without the unit symbol.

{"Molecule Smiles": "O=C(C(=O)N1CCN(C(=O)c2ccccc2)CC1)c1c[nH]c2c(-n3ccnn3)ncc(F)c12", "Unit String": "µM·h", "AUC(0-t)": 86}
{"Molecule Smiles": "COc1cnc(-n2cnc(C)n2)c2[nH]cc(C(=O)C(=O)N3CCN(C(=O)c4ccccc4)CC3)c12", "Unit String": "µM·h", "AUC(0-t)": 110}

Kindly consider the entry below.
Ask: Bench note: what AUC(0-t) did `COc1ncc(OC)c2c(C(=O)C(=O)N3CCN(C(=O)c4ccccc4)CC3)c[nH]c12` show?
Reply: 14.9

Origin of the recorded values: patent US20150315218A1
